# MEASUREMENT PROTOCOL: A549 cell viability effects, profiling panel, calcein-AM fluorescence, 48 h, basal (AID 1162); also: test concentration not given here
# DETAILS: higher = more signal
# if value of z-score reaches 0.03, tag class 1; if it stays below, tag class 0

{"MOLECULE": "CCOC(=O)C1=CC[C@@H](c2ccccc2)N(S(=O)(=O)c2ccc(C)cc2)C1", "ANSWER LABEL": "class 0"}
{"MOLECULE": "CC(C)CCC[C@@H](C)[C@H]1CC[C@@]2(C)C3=C(CC[C@]12C)[C@@]1(C)CC[C@H](OC(=O)c2ccc(Br)cc2)C(C)(C)C1CC3 (some centres undefined)", "ANSWER LABEL": "class 1"}
{"MOLECULE": "CCOC(=O)C[C@H]1[C@H](OC(=O)c2ccc(C(=O)c3ccccc3)cc2)[C@@H](NC(=O)c2ccc3ccccc3c2)c2cc(OCCCO)ccc2N1C(=O)c1ccccc1", "ANSWER LABEL": "class 0"}
{"MOLECULE": "CN(C)CCCCNC(=O)[C@H]1C[C@H]2C(=O)N3CCC[C@H]3C(=O)N2[C@H]1c1ccc(O)cc1", "ANSWER LABEL": "class 0"}
{"MOLECULE": "COc1cc2c(cc1OC)CN(C(=O)[C@@H]1[C@H]3C(=O)O[C@H](c4ccccc4)[C@H](c4ccccc4)N3[C@H](c3ccccc3OCCO)[C@@]13C(=O)Nc1ccc(C#CC4(O)CCCCCC4)cc13)CC2", "ANSWER LABEL": "class 1"}
{"MOLECULE": "CC(C)(C)OC(=O)CC[C@]1(C(=O)N2CCOCC2)N=C(c2ccc(OCCCO)cc2)O[C@H]1c1ccccc1", "ANSWER LABEL": "class 1"}
{"MOLECULE": "COC(=O)c1c(CC[C@@H](CO)NC(=O)N[C@H](Cn2cc(-c3ccccc3C)nn2)C(C)C)oc(C(C)=O)c1C(=O)OC", "ANSWER LABEL": "class 0"}
{"MOLECULE": "COCCOC(=O)N1C(=O)[C@@]2(c3ccccc31)[C@H](c1ccc(OCCO)cc1)N1[C@H](c3ccccc3)[C@H](c3ccccc3)OC(=O)[C@H]1[C@@H]2C(=O)Nc1nc2ccccc2s1", "ANSWER LABEL": "class 0"}
{"MOLECULE": "CC(C)(C)OC(=O)CC[C@@]1(C(=O)O)N=C(c2ccc(OCCCO)cc2)O[C@@H]1c1ccccc1CN=[N+]=[N-]", "ANSWER LABEL": "class 1"}
{"MOLECULE": "CCOC(=O)[C@H]1C/C=C/C[C@H](C(=O)OCC)C(=O)O[C@H]2[C@@H](OC)O[C@H](CO)[C@@H](OC(=O)Nc3ccc(OC)cc3)[C@@H]2OC1=O", "ANSWER LABEL": "class 1"}
{"MOLECULE": "CC(C)(C)OC(=O)CC[C@]1(C(=O)O)N=C(c2ccc(OCCCO)cc2)O[C@H]1c1ccccc1", "ANSWER LABEL": "class 0"}
{"MOLECULE": "COCCCNC(=O)[C@@]1(Sc2ccc(C)cc2)CC(=O)N(Cc2cc(C(F)(F)F)cc(C(F)(F)F)c2)[C@@H]1c1ccc(CO)cc1", "ANSWER LABEL": "class 1"}
{"MOLECULE": "COc1ccc(C(O)C2C=CC3C(=O)N(c4ccccc4)C(=O)C3N2Nc2ccccc2)cc1OCc1ccccc1 (centres undefined)", "ANSWER LABEL": "class 1"}

* * *

# System: Human papillomavirus type 1a protein E7 (residues 44-93)
# MEASUREMENT PROTOCOL: HPV1a E7 fragment binders on microarrays, primary screen, biochemical, small-molecule microarray, residues 44-93, 635 nm fluorescence (AID 1108);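 also: E7 fragment applied at 1 µg/mL in TBST for 1 h at 4 C; score combines spot fluorescence with its signal to noise ratio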
# DETAILS: small-molecule microarray binding, fluorescence 635 nm; higher = more signal
Values of composite z-score greater than or equal to 0.5 map to t; values below map to f.

{"SAMPLE SMILES": "COC(=O)[C@@]1(Cc2ccc(F)cc2)[C@H]2c3cc(C(=O)N4CCCC4)n(CCc4c[nH]c5ccc(OC)cc45)c3C[C@H]2CN1C(=O)c1ccccc1", "ANSWER LABEL": "t"}
{"SAMPLE SMILES": "C=CC[C@@]1(C(=O)N2CCCCC2)N=C(c2ccc(OCCCO)cc2)O[C@@H]1c1ccccc1", "ANSWER LABEL": "f"}
{"SAMPLE SMILES": "CO[C@H]1O[C@H](CO)[C@@H](OC(=O)c2ccc(Br)cc2)[C@@H]2OC(=O)[C@@H](Cc3ccc4ccccc4c3)C/C=C/C[C@H](Cc3ccc4ccccc4c3)C(=O)O[C@@H]12", "ANSWER LABEL": "t"}
{"SAMPLE SMILES": "C=CC[C@H](OC(=O)Nc1ccc(OC)cc1)c1ccc(O)c2ccccc12", "ANSWER LABEL": "t"}
{"SAMPLE SMILES": "CCCC[C@@H]1C[C@H]1[C@@H](NC(=O)c1cccnc1)c1ccc(-c2ccccc2)cc1", "ANSWER LABEL": "f"}
{"SAMPLE SMILES": "COCCOC(=O)N1C(=O)[C@@]2(c3cc(C#CCNC(N)=O)ccc31)[C@H](C(=O)N1CCCCCCC1)[C@H]1C(=O)O[C@H](c3ccccc3)[C@H](c3ccccc3)N1[C@@H]2c1ccc(O)cc1", "ANSWER LABEL": "t"}

* * *

# Tested on: wheat germ agglutinin (Triticum aestivum), Alexa647-labelled
# MEASUREMENT PROTOCOL: wheat germ agglutinin binders on compound microarrays, profiling panel, artefact control for SMM control-protein annotation, biochemical, small-molecule microarray, 635/667 nm fluorescence (AID 1140);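 also: score merges 667 nm feature emission with signal to noise over triplicate slides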
# DETAILS: WGA-A647 binding, 635 nm fluorescence, higher = more signal
composite z-score by entry:

{"COMPOUND": "O=C(NC1CC1)[C@@H]1c2ccccc2C(=O)N(Cc2ccccc2)[C@H]1c1ccc(CO)cc1", "composite z-score": 0.905}
{"COMPOUND": "CC(C)(C)OC(=O)CC[C@]1(C(=O)NCCN2CCOCC2)N=C(c2ccc(OCCCO)cc2)O[C@H]1c1ccccc1", "composite z-score": 0.391}
{"COMPOUND": "CCCCN1CC=CC23O[C@@H]4C=CCOC(=O)[C@@H]4[C@H]2C(=O)N(C(C)CO)[C@@H]3C1=O (some centres not stated)", "composite z-score": -1.02}
{"COMPOUND": "CCCCC(CC)C(O)C1C=CC2C(=O)N(c3ccccc3)C(=O)C2N1Nc1ccc([N+](=O)[O-])cc1 (configuration not stated)", "composite z-score": 1.02}
{"COMPOUND": "O=C1O[C@@H](c2ccccc2)[C@@H](c2ccccc2)N2[C@@H](c3ccc(O)cc3)[C@]3(C(=O)Nc4ccc(C#CC5=CCCCC5)cc43)[C@@H](C(=O)N3CCN(c4ncccn4)CC3)[C@H]12", "composite z-score": 0.262}
{"COMPOUND": "CCN(CC)c1ccc(N2CC=CC34O[C@@H]5/C=C\\CCC(C)OC(=O)C5[C@H]3C(=O)N(CCO)[C@@H]4C2=O)cc1 (some centres not stated)", "composite z-score": 0.144}
{"COMPOUND": "COc1ccc([Si](C)(C)[C@@H]2[C@@H](CCO)O[C@]3(C(=O)N(Cc4cccc(N5C(=O)c6cccc7cccc5c67)c4)c4ccccc43)[C@H]2C)cc1", "composite z-score": 0.0034}

* * *

# MEASUREMENT PROTOCOL: P. aeruginosa biofilm formation inhibitors, primary screen, PAO1 strain, BacTiter-Glo luminescence, LB-PBS (AID 1144)
# DETAILS: 12 h, higher = more signal
RESULT TYPE: z-score

{"MOLECULE": "COc1ccccc1CN1C(=O)c2ccccc2[C@@H](C(=O)NC(C)C)[C@@H]1c1ccc(CO)cc1", "RESULT TYPE": "z-score", "OBSERVED RESULT": 0.464}
{"MOLECULE": "COC(=O)[C@@]1(Cc2ccccc2)[C@H]2c3cc(C(=O)N4CCCC4)n(Cc4cc(F)cc5c4OCOC5)c3C[C@H]2CN1C(=O)c1ccccc1", "RESULT TYPE": "z-score", "OBSERVED RESULT": -0.511}
{"MOLECULE": "CC=CC(O)C1C=CC2C(=O)N(c3ccccc3)C(=O)C2N1Nc1ccccc1 (stereo not given)", "RESULT TYPE": "z-score", "OBSERVED RESULT": -1.33}
{"MOLECULE": "CC=CC(O)C1C=CC2C(=O)N(C)C(=O)C2N1N1CCCCC1 (stereo not given)", "RESULT TYPE": "z-score", "OBSERVED RESULT": -0.0466}
{"MOLECULE": "O=C1NC(=O)C2C1C=CC(C(O)c1cc(C(F)(F)F)cc(C(F)(F)F)c1)N2Nc1ccc(Cl)cc1Cl (stereo not given)", "RESULT TYPE": "z-score", "OBSERVED RESULT": -0.673}
